Just for reference, paper PMC12527173 is where these values come from.

Item-by-item account of IC50
# Tested on: PANC1 pancreatic cell line
# PROCEDURE DETAILS: SRB cytotoxicity assay, PANC1
# Format: cell-based
# DETAILS: Homo sapiens, PANC-1, 72 h incubation, n = 12, read-out: Cytotoxicity (as of %Control) IC50 value PANC1

COMPOUND: CC(/C=C/C(=O)NO)=C\[C@@H](C)C(=O)c1ccc(N(C)C)cc1 [Trichostatin A, reference compound]
UNIT OF MEASURE: µM
IC50: 95.8
//
COMPOUND: COc1cccc2c1C(=O)c1c(O)c3c(c(O)c1C2=O)C[C@@](O)(C(=O)CO)C[C@@H]3O[C@H]1C[C@H](N)[C@H](O)[C@H](C)O1 [Doxorubicin, reference compound]
UNIT OF MEASURE: µM
IC50: 7.17
//
COMPOUND: O=c1c(O)c(-c2cc(O)c(O)c(O)c2)oc2cc(O)cc(O)c12 [Myricetin, reference compound]
UNIT OF MEASURE: µM
IC50: 198
//
COMPOUND: CC(C)=CC[C@@H](O)C1=CC(=O)c2c(O)ccc(O)c2C1=O
UNIT OF MEASURE: µM
IC50: 80
//
COMPOUND: O=C1c2ccc(O)c(O)c2C(=O)c2c(O)ccc(O)c21
UNIT OF MEASURE: µM
IC50: 127
//
COMPOUND: O=c1cc(O)cc(/C=C/c2ccc(O)c(O)c2)o1
UNIT OF MEASURE: µM
IC50: 130
//
COMPOUND: Cc1ccc(C(=O)c2cc(O)c(O)c([N+](=O)[O-])c2)cc1 [Tolcapone, reference compound]
UNIT OF MEASURE: µM
IC50: 119
//
COMPOUND: C[C@]12CC[C@@H]3c4ccc(O)c(O)c4CC[C@H]3[C@@H]1CC[C@@H]2O [4-hydroxy-estradiol]
UNIT OF MEASURE: µM
IC50: 66.9

* * *

# Tested on: CACO2 colorectal cancer cell line
# PROCEDURE DETAILS: SRB cytotoxicity assay, CACO2
# Assay type: cell-based
# DETAILS: Homo sapiens, Caco-2, 72 h incubation, n = 12, read-out: Cytotoxicity (as of %Control) IC50 value CACO2
# Protocol: The cancer cell lines were cultured in DMEM supplemented with 10% FBS (Bio Whittaker, Verviers, Belgium), HEPES Buffer (10 mM), gentamicin (50 µg/mL), L-glutamine (100 μg/mL), streptomycin ([…]), penicillin (100 µg/mL), and 4-(2-hydroxyethyl)-1-piperazineethanesulfonic acid (HEPES) Buffer (Sigma, St. Luis, MO, USA). […] The cytotoxicity levels were assessed using the Sulforhodamine B (SRB) colorimetric assay, provided by Santa Cruz Biotechnology, Inc. in Texas, USA. […]
Item-by-item account of IC50
VALUE KIND: IC50 (µM)

COMPOUND: O=c1cc(O)cc(/C=C/c2ccc(O)c(O)c2)o1
ASSAYED TARGET: CACO2 colorectal cancer cell line
VALUE KIND: IC50
REPORTED MEASUREMENT: 74.3

COMPOUND: Cc1ccc(C(=O)c2cc(O)c(O)c([N+](=O)[O-])c2)cc1 [Tolcapone, reference compound]
ASSAYED TARGET: CACO2 colorectal cancer cell line
VALUE KIND: IC50
REPORTED MEASUREMENT: 94.8

COMPOUND: C[C@]12CC[C@@H]3c4ccc(O)c(O)c4CC[C@H]3[C@@H]1CC[C@@H]2O [4-hydroxy-estradiol]
ASSAYED TARGET: CACO2 colorectal cancer cell line
VALUE KIND: IC50
REPORTED MEASUREMENT: 107

COMPOUND: COc1cccc2c1C(=O)c1c(O)c3c(c(O)c1C2=O)C[C@@](O)(C(=O)CO)C[C@@H]3O[C@H]1C[C@H](N)[C@H](O)[C@H](C)O1 [Doxorubicin, reference compound]
ASSAYED TARGET: CACO2 colorectal cancer cell line
VALUE KIND: IC50
REPORTED MEASUREMENT: 0.92

COMPOUND: O=c1c(O)c(-c2cc(O)c(O)c(O)c2)oc2cc(O)cc(O)c12 [Myricetin, reference compound]
ASSAYED TARGET: CACO2 colorectal cancer cell line
VALUE KIND: IC50
REPORTED MEASUREMENT: 106

COMPOUND: CC(C)=CC[C@@H](O)C1=CC(=O)c2c(O)ccc(O)c2C1=O
ASSAYED TARGET: CACO2 colorectal cancer cell line
VALUE KIND: IC50
REPORTED MEASUREMENT: 43.8

COMPOUND: CC(/C=C/C(=O)NO)=C\[C@@H](C)C(=O)c1ccc(N(C)C)cc1 [Trichostatin A, reference compound]
ASSAYED TARGET: CACO2 colorectal cancer cell line
VALUE KIND: IC50
REPORTED MEASUREMENT: 27.1

COMPOUND: O=C1c2ccc(O)c(O)c2C(=O)c2c(O)ccc(O)c21
ASSAYED TARGET: CACO2 colorectal cancer cell line
VALUE KIND: IC50
REPORTED MEASUREMENT: 109
